details: in isobutyl acetate, 283.15 K
READOUT_TYPE: solubility (mole fraction)
Just the number.

State its solubility (mole fraction) for this compound: `COc1ccc(C=O)cc1O` 0.0165

---

details: in isobutanol, 288.15 K
READOUT_TYPE: solubility (mole fraction)
Response field accepts a number only; no unit should be typed.

Fill in reported solubility (mole fraction) for this entry: `COc1ccc(C=O)cc1O` 0.0161

---

conditions: in formic acid, 278.15 K
READOUT_TYPE: solubility (mole fraction)
Reply: number alone, nothing else.

# return recorded solubility (mole fraction) for entry `COc1ccc(C=O)cc1O` 0.0432

---

conditions: in isopropanol, 288.15 K
READOUT_TYPE: solubility (mole fraction)

Give the reported solubility (mole fraction) for this molecule. `COc1ccc(C=O)cc1O` 0.0118

---

details: in ethyl acetate, 298.15 K
READOUT_TYPE: solubility (mole fraction)
Number only, please.

Fill in reported solubility (mole fraction) for this entry: `COc1ccc(C=O)cc1O` 0.0401

---

conditions: in methyl acetate, 278.15 K
READOUT_TYPE: solubility (mole fraction)
Field format: numeric only.

Item `COc1ccc(C=O)cc1O` : provide solubility (mole fraction) 0.0382

---

details: in n-propanol, 278.15 K
READOUT_TYPE: solubility (mole fraction)
Reply: number alone, nothing else.

Identify measured solubility (mole fraction) associated with `COc1ccc(C=O)cc1O` 0.0186

---

settings: in formic acid, 308.15 K
READOUT_TYPE: solubility (mole fraction)
# print the numeric value only

Give the measured solubility (mole fraction) for `COc1ccc(C=O)cc1O` 0.115

---

details: in isopropanol, 293.15 K
READOUT_TYPE: solubility (mole fraction)
Give a plain numeric answer without units written out.

Give me measured solubility (mole fraction), please, for this compound: `COc1ccc(C=O)cc1O` 0.0149

---

conditions: in isopropanol, 318.15 K
READOUT_TYPE: solubility (mole fraction)
Could you keep your reply to the number by itself?

Supply recorded solubility (mole fraction) for `COc1ccc(C=O)cc1O` here. 0.0576

---

conditions: in isobutanol, 308.15 K
READOUT_TYPE: solubility (mole fraction)
Hey, just send me the number, nothing else.

Determine from records and report solubility (mole fraction) for `COc1ccc(C=O)cc1O` 0.0338

---

settings: in methyl acetate, 308.15 K
READOUT_TYPE: solubility (mole fraction)
// keep it numeric: no unit symbol after the value

Fill in reported solubility (mole fraction) for this entry: `COc1ccc(C=O)cc1O` 0.104

---

details: in methyl acetate, 298.15 K
READOUT_TYPE: solubility (mole fraction)
Lab note: jot the number down without any unit.

Provide only the value of recorded solubility (mole fraction) for `COc1ccc(C=O)cc1O` 0.074

---

settings: in isopropanol, 283.15 K
READOUT_TYPE: solubility (mole fraction)
Kindly provide the number alone.

State its solubility (mole fraction) for this compound: `COc1ccc(C=O)cc1O` 0.0092

---

conditions: in n-butanol, 308.15 K
READOUT_TYPE: solubility (mole fraction)
Simply state the number, no unit and no words.

Using the record for `COc1ccc(C=O)cc1O` , state its measured solubility (mole fraction). 0.0445

---

conditions: in isobutanol, 313.15 K
READOUT_TYPE: solubility (mole fraction)

Output solubility (mole fraction) of `COc1ccc(C=O)cc1O` 0.042

---

details: in ethanol, 318.15 K
READOUT_TYPE: solubility (mole fraction)
Respond using a number only.

Give solubility (mole fraction) for `COc1ccc(C=O)cc1O` 0.0695

---

conditions: in isobutanol, 303.15 K
READOUT_TYPE: solubility (mole fraction)
Lab note: record the figure alone, no unit after it.

Read the entry `COc1ccc(C=O)cc1O` and write its reported solubility (mole fraction). 0.0271

---

conditions: in formic acid, 288.15 K
READOUT_TYPE: solubility (mole fraction)
Answer field: number only, no words.

Input `COc1ccc(C=O)cc1O` , output reported solubility (mole fraction). 0.0571

---

conditions: in n-butanol, 288.15 K
READOUT_TYPE: solubility (mole fraction)
Give the value as a plain number.

Give recorded solubility (mole fraction). `COc1ccc(C=O)cc1O` 0.017

---

conditions: in ethyl acetate, 318.15 K
READOUT_TYPE: solubility (mole fraction)

Supply recorded solubility (mole fraction) for `COc1ccc(C=O)cc1O` here. 0.0806

---

details: in methyl acetate, 293.15 K
READOUT_TYPE: solubility (mole fraction)

Give the measured solubility (mole fraction) for `COc1ccc(C=O)cc1O` 0.0633

---

details: in isobutanol, 283.15 K
READOUT_TYPE: solubility (mole fraction)

Consider the compound `COc1ccc(C=O)cc1O` . State its measured solubility (mole fraction). 0.0098

---

details: in methyl acetate, 283.15 K
READOUT_TYPE: solubility (mole fraction)
Enter the number alone.

Quickly give me recorded solubility (mole fraction) for `COc1ccc(C=O)cc1O` 0.0425

---

conditions: in methanol, 313.15 K
READOUT_TYPE: solubility (mole fraction)
Answer as a number with no unit attached.

Given the compound `COc1ccc(C=O)cc1O` , write its reported solubility (mole fraction). 0.0836

---

conditions: in ethanol, 288.15 K
READOUT_TYPE: solubility (mole fraction)
Please reply with the value in numeric form only.

Dear colleague, please send me the reported solubility (mole fraction) for `COc1ccc(C=O)cc1O` when you can. 0.0184

---

settings: in ethanol, 308.15 K
READOUT_TYPE: solubility (mole fraction)
Lab note: jot the number down without any unit.

Please report solubility (mole fraction) for the following compound: `COc1ccc(C=O)cc1O` 0.0429

---

conditions: in isobutyl acetate, 293.15 K
READOUT_TYPE: solubility (mole fraction)
Write no unit; give the number alone.

Determine its reported solubility (mole fraction): `COc1ccc(C=O)cc1O` 0.0216

---

conditions: in n-propanol, 313.15 K
READOUT_TYPE: solubility (mole fraction)
Answer with a number only.

Fill in solubility (mole fraction) for record `COc1ccc(C=O)cc1O` 0.0582

---

details: in ethyl acetate, 293.15 K
READOUT_TYPE: solubility (mole fraction)
# answer = number (no unit)

Please supply the value of reported solubility (mole fraction) for the item `COc1ccc(C=O)cc1O` 0.0342

---

details: in ethyl acetate, 308.15 K
READOUT_TYPE: solubility (mole fraction)
Field format: numeric only.

Identify the reported solubility (mole fraction) for the following entry. `COc1ccc(C=O)cc1O` 0.0559

---

conditions: in n-butanol, 313.15 K
READOUT_TYPE: solubility (mole fraction)

Quickly give me recorded solubility (mole fraction) for `COc1ccc(C=O)cc1O` 0.0542

---

conditions: in n-propanol, 288.15 K
READOUT_TYPE: solubility (mole fraction)

# return recorded solubility (mole fraction) for entry `COc1ccc(C=O)cc1O` 0.0242

---

conditions: in methanol, 288.15 K
READOUT_TYPE: solubility (mole fraction)
Form field (numeric): enter value without unit.

Quote solubility (mole fraction) reported for `COc1ccc(C=O)cc1O` please. 0.0231

---

conditions: in formic acid, 293.15 K
READOUT_TYPE: solubility (mole fraction)
Just the number, please, no unit after it.

Give the measured solubility (mole fraction) for `COc1ccc(C=O)cc1O` 0.068

---

conditions: in n-butanol, 298.15 K
READOUT_TYPE: solubility (mole fraction)

Specify reported solubility (mole fraction) for the molecule shown: `COc1ccc(C=O)cc1O` 0.0253

---

conditions: in n-propanol, 308.15 K
READOUT_TYPE: solubility (mole fraction)
# output: bare number, no unit

Give recorded solubility (mole fraction). `COc1ccc(C=O)cc1O` 0.0455

---

settings: in methyl acetate, 288.15 K
READOUT_TYPE: solubility (mole fraction)
Number, no unit, nothing else.

Output measured solubility (mole fraction) for this item: `COc1ccc(C=O)cc1O` 0.0536

---

settings: in isopropanol, 278.15 K
READOUT_TYPE: solubility (mole fraction)
# respond with the number and nothing more

Identify the reported solubility (mole fraction) for the following entry. `COc1ccc(C=O)cc1O` 0.0072

---

settings: in isopropanol, 313.15 K
READOUT_TYPE: solubility (mole fraction)
// keep it numeric: no unit symbol after the value

Name the recorded solubility (mole fraction) of the compound listed here: `COc1ccc(C=O)cc1O` 0.0386

---

settings: in isobutanol, 298.15 K
READOUT_TYPE: solubility (mole fraction)

Recall and state the measured solubility (mole fraction) for `COc1ccc(C=O)cc1O` . 0.0223

---

details: in formic acid, 313.15 K
READOUT_TYPE: solubility (mole fraction)
Output spec: single numeric token, no unit.

Respond only with solubility (mole fraction) recorded for `COc1ccc(C=O)cc1O` 0.137

---

conditions: in n-propanol, 298.15 K
READOUT_TYPE: solubility (mole fraction)
Output spec: single numeric token, no unit.

For the molecule `COc1ccc(C=O)cc1O` , report solubility (mole fraction). 0.0331

---

details: in n-butanol, 318.15 K
READOUT_TYPE: solubility (mole fraction)

// Input: `COc1ccc(C=O)cc1O` . Output its solubility (mole fraction) only. 0.0641
